System: IGROV-1
Experiment: NCI tumour cell line growth inhibition, 48 h
Activity calls are given as the source filed them. Rule as the data show it: active = GI50 up to about 1.1 µM and inactive = higher.
Would you mind telling me the reported GI50 of each entry?

Use the examples below as a reference point.
compound="C[C@]12CC[C@@H]3c4ccc(O)cc4CC[C@H]3[C@@H]1CC[C@@H]2OC(=O)CCC1CCCC1 [ESTRADIOL CYPIONATE]" parameter=GI50 result="17.6 µM (inactive)"
compound="CC(=O)OCCC(O[Si](c1ccccc1)(c1ccccc1)C(C)(C)C)C(C)(C)O (stereo unspecified)" parameter=GI50 result="36.3 µM (inactive)"
compound=COc1cc(/C=C/c2ccc(OC)c(OC)c2)oc(=O)c1 parameter=GI50 result="> 220 µM (inactive)"
compound=Cn1c(=O)c2c3ccccc3n(C)c2n(C)c1=O parameter=GI50 result="> 100 µM (inactive)"
compound=CC(=O)Oc1ccc2cc(Oc3ccccc3)c(=O)oc2c1 parameter=GI50 result="> 100 µM (inactive)"

I have 6 compounds here; please give me GI50 for each one.
1. C[C@H](O)CCC(=O)c1ccoc1
2. N#CSCc1nc2ccc(Cl)cc2c(-c2ccccc2)[n+]1[O-]
3. NC(=S)N1N=C2c3ccccc3CC[C@@H]2[C@@H]1c1ccccc1
4. CCN(CC)CC[S+]([O-])c1c2cc(OC)ccc2nc2ccc(OC)cc12 (stereo unspecified)
5. COC(=O)C1=C(C)C=C(N2CCOCC2)C(C(=O)OC)C1c1ccccc1 (stereo unspecified)
6. O=C(O)CN(CC(=O)O)c1ccccc1

### Response
> 100 µM (inactive)
> 10 µM (inactive)
12.6 µM (inactive)
2.54 µM (inactive)
> 10 µM (inactive)
> 100 µM (inactive)

I have 6 compounds here; please give me GI50 for each one.
1. Nc1csc(-c2scc3c2OCCO3)c1N
2. O=C(CCC(=O)CC(O)(C(F)(F)F)C(F)(F)F)CC(O)(C(F)(F)F)C(F)(F)F
3. CC(C)NC(=O)OCc1c(CO)c2c(n1C)-c1ccccc1CC2
4. O=C1c2ccccc2C(=O)c2c(O)c(NCCCNCCO)cc(O)c21
5. Cc1ccc(NC(=O)CC/C(CC(=O)C(C)(C)C)=N\NC(=O)C[n+]2ccccc2)cc1C
6. O=C(c1ccccc1)C1S(=O)(=O)OCCOS1(=O)=O

### Response
22.5 µM (inactive)
29.7 µM (inactive)
27.5 µM (inactive)
12.4 µM (inactive)
> 100 µM (inactive)
> 100 µM (inactive)
